Origin of the recorded values: paper PMC9090415

Target: P. falciparum apicoplast DNA polymerase (Pf-apPOL) (Plasmodium falciparum)
Sequence (Q8ILY1 entry or part of it): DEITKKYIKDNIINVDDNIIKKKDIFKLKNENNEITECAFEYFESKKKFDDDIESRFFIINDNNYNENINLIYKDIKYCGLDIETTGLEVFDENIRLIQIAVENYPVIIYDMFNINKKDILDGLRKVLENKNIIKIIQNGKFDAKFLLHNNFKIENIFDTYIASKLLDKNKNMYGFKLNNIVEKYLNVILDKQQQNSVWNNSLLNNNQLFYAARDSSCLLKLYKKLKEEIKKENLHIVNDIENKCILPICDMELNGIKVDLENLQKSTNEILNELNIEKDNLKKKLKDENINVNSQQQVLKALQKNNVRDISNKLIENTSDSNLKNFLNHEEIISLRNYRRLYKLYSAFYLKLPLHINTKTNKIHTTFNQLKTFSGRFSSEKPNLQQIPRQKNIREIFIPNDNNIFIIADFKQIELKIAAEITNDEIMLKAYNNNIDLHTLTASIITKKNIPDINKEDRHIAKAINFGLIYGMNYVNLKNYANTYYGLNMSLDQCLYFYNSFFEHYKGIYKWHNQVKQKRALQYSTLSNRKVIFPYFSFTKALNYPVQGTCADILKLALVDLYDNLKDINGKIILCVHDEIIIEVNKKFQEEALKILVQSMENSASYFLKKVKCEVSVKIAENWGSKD
Test: Fluorescence-based high-throughput DNA polymerase assay (molecular beacon), primary screen and dose-response;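 also: compound concentration given in µM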
Type: biochemical
Conditions: DRC-2, 40', concentration 80

{"Compound": "COc1ccccc1CCC(=O)N1CCc2c(nc3cc(-c4ccccc4)[nH]n3c2=O)C1", "Study system": "P. falciparum apicoplast DNA polymerase (Pf-apPOL) (Plasmodium falciparum)", "% inhibition Apol 40'": "44%"}
{"Compound": "O=C(O)C(=O)Nc1nc(-c2ccc3c(c2)OCCO3)cs1", "Study system": "P. falciparum apicoplast DNA polymerase (Pf-apPOL) (Plasmodium falciparum)", "% inhibition Apol 40'": "46%"}
{"Compound": "Cc1ncc(CSc2nc(C(C)(C)C)cs2)c(CO)c1O", "Study system": "P. falciparum apicoplast DNA polymerase (Pf-apPOL) (Plasmodium falciparum)", "% inhibition Apol 40'": "61%"}
{"Compound": "O=C(O)CC1SC(c2ccc3c(c2)OCO3)=NC1=O (centres unmarked)", "Study system": "P. falciparum apicoplast DNA polymerase (Pf-apPOL) (Plasmodium falciparum)", "% inhibition Apol 40'": "51%"}
{"Compound": "CS(=O)(=O)c1cccc(C(=O)Nc2nnc(-c3ccno3)o2)c1", "Study system": "P. falciparum apicoplast DNA polymerase (Pf-apPOL) (Plasmodium falciparum)", "% inhibition Apol 40'": "35%"}
{"Compound": "CC1=NNC(=O)C1Oc1ccc(Cl)cc1Cl (centres unmarked)", "Study system": "P. falciparum apicoplast DNA polymerase (Pf-apPOL) (Plasmodium falciparum)", "% inhibition Apol 40'": "53%"}
{"Compound": "O=C(O)CC1=NN(c2cccc([N+](=O)[O-])c2)C(=O)C1", "Study system": "P. falciparum apicoplast DNA polymerase (Pf-apPOL) (Plasmodium falciparum)", "% inhibition Apol 40'": "71%"}
{"Compound": "COc1ccc(C(=O)Nc2cccc(-c3nc4ncccc4o3)c2)cc1[N+](=O)[O-]", "Study system": "P. falciparum apicoplast DNA polymerase (Pf-apPOL) (Plasmodium falciparum)", "% inhibition Apol 40'": "45%"}
